- Test system: SF-295
- Assay Procedure: NCI tumour cell line growth inhibition, 48 h
Calls of active or inactive are those of the source. Rule as the data show it: active = GI50 up to about 1.1 µM and inactive = higher.
Measured GI50 by item

Given CCN(CC)C(=S)SS(=O)(=O)c1ccc(NC(C)=O)cc1 , respond with its GI50. 28.2 µM (inactive)

# return recorded GI50 for entry CCOC(=O)NC(=O)c1cn(CCSCCOC(=O)NCCCCCCNC(=O)OCCSCCn2cc(C(=O)NC(=O)OCC)c(=O)n(C)c2=O)c(=O)n(C)c1=O 75.7 µM (inactive)

Next:
Query GI50 for CC1(C)CCC[C@]2(C)[C@@H]1CC[C@@]13O[C@@H]1C1=C(CO)C(=O)OC1=C[C@@H]23 16.9 µM (inactive)

Return reported GI50. Input compound: COc1ccccc1CNCCCCCNCCCCCCCCCCNCCCCCNCc1ccccc1OC 24.7 µM (inactive)

Each recorded value in this set is attributed to ChEMBL document CHEMBL1201862.
